- target_under_test: Neu5Ac(a2-3)Gal(b1-4)[Fuc(a1-3)]GlcNAc(b1-3)GalNAc
- test: glycan array binding signal (z-score within array); higher = stronger binding
- run_conditions: glycan notation: IUPAC condensed, linker removed
This excerpt belongs to a sample that is enriched for the strongest signals.
measured_attribute: glycan array binding signal (z-score)
The response must contain the number and no unit.

Exercise: Query: glycan array binding signal (z-score); subject: SP8524D-bot-399-27-399 (Bacteroides ovatus) (protein) DAKYDTLDTHAYIEEALSSTSQKVTVQATGESFTTLNVHLSNLSSTDNHYKLVTDQSVLDTYNHINGTGYIMLPKDYYTLPETITVKAGQYAADALSIALKAFSQEMMKSGESYALPVKLVLQDGSISPMENTGTFVILAESIIEFSAPMFVGAPSLKANKFTESPETYSQYTIEVRFQVANTADRDRAVFKNGGDDANFILLRFEDPQSDNENYKAHSLVQIVGRNRLYLNPSNSFKPNEWQHLALVCDGSNYRLYINGVDSGVLSIPTGATTFSDVNWFCLGDDSYSRWGNCKILMSEARIWSVVRSASQIQNNMTQVSPKSVGLEAYWRFNEGQGNVFEDATGKGHTLTTSATPTWIDGILSTDKSTEWK
Solution: 0.96

Exercise: Entry Layilin (Mus musculus), Q8C351 (protein) MQPGAALQAMLLAVLLAKPRDSKGRLLSASDLDPRGGQLVCRGGTRRPCYKVIYFHDAFQRLNFEEAKETCMEDGGQLVSIETEDEQRLIEKFIENLLASDGDFWIGLKRLEEKQSNNTACQDLYAWTDGSTSQFRNWYVDEPSCGSEVCVVMYHQPSAPPGIGGSYMFQWNDDRCNMKNNFICKYHDDKPSTTPSIWPGGEATEPATPLLPEETQKEDTKETFKERREAALNLAYILIPSIPLFLLLVVTSAVCWVWICRRKREQTDPSTKEQHTIWPTPRQENSPNLDVYNVIRKQSEADLAEPRPDLKNISFRVCSGEAMPDDMSCDYENIAVNPSESGFVTLASMESGFVTNDIYEFSPDRMGRSKESGWVENEIYY : reported glycan array binding signal (z-score) = ?
Solution: 1.82
